# Test system: NCI-H2228
# Procedure text: relative viability (nuclei count vs DMSO), 5 days (fraction); higher = more cells survive
# Assay conditions: first compound 0.01 µM
For each record, write down the corresponding relative viability.
Answer with a bare number; do not write a unit.

So, CC(C)Oc1cc(Nc2nc(N[C@@H](C)c3ccc(F)cn3)ncc2Cl)n[nH]1 [AZ23] + Cc1cc(Nc2cc(N3CCN(C)CC3)nc(Sc3ccc(NC(=O)C4CC4)cc3)n2)n[nH]1 [Tozasertib] (partner 0.1 µM) ? Its relative viability was 0.219

relative viability measured on CC(C)Oc1cc(Nc2nc(N[C@@H](C)c3ccc(F)cn3)ncc2Cl)n[nH]1 [AZ23] + O=C(c1cc(Cc2n[nH]c(=O)c3ccccc23)ccc1F)N1CCN(C(=O)C2CC2)CC1 [Olaparib] (partner 8 µM) = 0.53

relative viability in this record for CC(C)Oc1cc(Nc2nc(N[C@@H](C)c3ccc(F)cn3)ncc2Cl)n[nH]1 [AZ23] + O=C(CCCCCCC(=O)Nc1ccccc1)NO [Vorinostat] (partner 1 µM) : 0.72

Looking up CC(C)Oc1cc(Nc2nc(N[C@@H](C)c3ccc(F)cn3)ncc2Cl)n[nH]1 [AZ23] + Cc1nc(NC(=O)N2CCC[C@H]2C(N)=O)sc1-c1ccnc(C(C)(C)C(F)(F)F)c1 [Alpelisib] (partner 2 µM) , I see its relative viability listed as 0.88

The compound identified as CC(C)Oc1cc(Nc2nc(N[C@@H](C)c3ccc(F)cn3)ncc2Cl)n[nH]1 [AZ23] + N=C(N)NC(=N)NCCc1ccccc1 [Phenformin] (partner 250 µM) registered its relative viability at 0.401

----------
# Tested on: SK-MES-1
# Procedure text: relative viability (nuclei count vs DMSO), 5 days (fraction); higher = more cells survive
# Assay conditions: first compound 0.1265 µM
Kindly supply the reported relative viability values for the records listed here.
Answer field: number only, no words.

The molecule listed as COc1cc(N2CCC(C(N)=O)CC2)ccc1Nc1nc(N)c(Cl)c(Nc2ccccc2S(=O)(=O)C(C)C)n1 [HG-5-88-01] + CC(=O)Nc1cccc(-n2c(=O)n(C3CC3)c(=O)c3c(Nc4ccc(I)cc4F)n(C)c(=O)c(C)c32)c1 [Trametinib] (partner 0.02 µM) shows relative viability equal to 0.54

Documented relative viability of COc1cc(N2CCC(C(N)=O)CC2)ccc1Nc1nc(N)c(Cl)c(Nc2ccccc2S(=O)(=O)C(C)C)n1 [HG-5-88-01] + Nc1nc2[nH]cc(CCc3ccc(C(=O)N[C@@H](CCC(=O)O)C(=O)O)cc3)c2c(=O)[nH]1 [Pemetrexed] (partner 0.2 µM) : 0.923

Reported relative viability ( Clc1ccc(Nc2nnc(Cc3ccncc3)c3ccccc23)cc1 [Vatalanib] + Nc1nc2[nH]cc(CCc3ccc(C(=O)N[C@@H](CCC(=O)O)C(=O)O)cc3)c2c(=O)[nH]1 [Pemetrexed] (partner 0.2 µM) ) = 0.925

Briefly, relative viability measured for Clc1ccc(Nc2nnc(Cc3ccncc3)c3ccccc23)cc1 [Vatalanib] + Cc1nc(Nc2ncc(C(=O)Nc3c(C)cccc3Cl)s2)cc(N2CCN(CCO)CC2)n1 [Dasatinib] (partner 0.075 µM) : 0.439

Data point: COc1cc(N2CCC(C(N)=O)CC2)ccc1Nc1nc(N)c(Cl)c(Nc2ccccc2S(=O)(=O)C(C)C)n1 [HG-5-88-01] + CC1(C)CCC(c2ccc(Cl)cc2)=C(CN2CCN(c3ccc(C(=O)NS(=O)(=O)c4ccc(N[C@H](CCN5CCOCC5)CSc5ccccc5)c(S(=O)(=O)C(F)(F)F)c4)cc3)CC2)C1 [Navitoclax] (partner 0.5 µM) ; relative viability = 1.29

# relative viability of COc1cc(N2CCC(C(N)=O)CC2)ccc1Nc1nc(N)c(Cl)c(Nc2ccccc2S(=O)(=O)C(C)C)n1 [HG-5-88-01] + Cc1cc(Nc2cc(N3CCN(C)CC3)nc(Sc3ccc(NC(=O)C4CC4)cc3)n2)n[nH]1 [Tozasertib] (partner 0.1 µM) = 0.909

Reported relative viability for COc1cc(N2CCC(C(N)=O)CC2)ccc1Nc1nc(N)c(Cl)c(Nc2ccccc2S(=O)(=O)C(C)C)n1 [HG-5-88-01] + O=C(c1cc(Cc2n[nH]c(=O)c3ccccc23)ccc1F)N1CCN(C(=O)C2CC2)CC1 [Olaparib] (partner 8 µM) was 0.658

Form: molecule = Clc1ccc(Nc2nnc(Cc3ccncc3)c3ccccc23)cc1 [Vatalanib] + Cc1cc(Nc2cc(N3CCN(C)CC3)nc(Sc3ccc(NC(=O)C4CC4)cc3)n2)n[nH]1 [Tozasertib] (partner 0.1 µM) ; relative viability = 0.897

----------
Give measured relative viability for each item. Keep answers brief.
# Tested on: HCC-366
# Procedure text: relative viability (nuclei count vs DMSO), 5 days (fraction); higher = more cells survive
# Assay conditions: first compound 0.04 µM
Respond with the number and no other words.

In plain terms, Clc1ccc(Nc2nnc(Cc3ccncc3)c3ccccc23)cc1 [Vatalanib] + CC1(C)CCC(c2ccc(Cl)cc2)=C(CN2CCN(c3ccc(C(=O)NS(=O)(=O)c4ccc(N[C@H](CCN5CCOCC5)CSc5ccccc5)c(S(=O)(=O)C(F)(F)F)c4)cc3)CC2)C1 [Navitoclax] (partner 0.5 µM) has a documented relative viability of 1.09

For this compound ( Clc1ccc(Nc2nnc(Cc3ccncc3)c3ccccc23)cc1 [Vatalanib] + Nc1ncn([C@H]2C[C@H](O)[C@@H](CO)O2)c(=O)n1 [Decitabine] (partner 2 µM) ), measured relative viability is 0.328

relative viability measured on C[C@@H]1CN(CC(=O)Nc2ccc3c(c2)Cc2cccc(-c4cc(=O)cc(N5CCOCC5)o4)c2S3)C[C@H](C)O1 + O=C(CCCCCCC(=O)Nc1ccccc1)NO [Vorinostat] (partner 1 µM) = 0.314

Value of relative viability reported for the compound C[C@@H]1CN(CC(=O)Nc2ccc3c(c2)Cc2cccc(-c4cc(=O)cc(N5CCOCC5)o4)c2S3)C[C@H](C)O1 + NC(=O)Nc1cc(-c2cccc(F)c2)sc1C(=O)N[C@H]1CCCNC1 [AZD7762] (partner 0.2 µM) is 0.247

----------
# Tested on: NCI-H1395
# Procedure text: relative viability (nuclei count vs DMSO), 5 days (fraction); higher = more cells survive
# Assay conditions: first compound 0.03162 µM
Please provide measured relative viability for the entries that follow.

Reported relative viability of CC(C)Oc1cc(Nc2nc(N[C@@H](C)c3ccc(F)cn3)ncc2Cl)n[nH]1 [AZ23] + N=C(N)NC(=N)NCCc1ccccc1 [Phenformin] (partner 250 µM) : 0.483

relative viability measured on CC(C)Oc1cc(Nc2nc(N[C@@H](C)c3ccc(F)cn3)ncc2Cl)n[nH]1 [AZ23] + Nc1ncn([C@H]2C[C@H](O)[C@@H](CO)O2)c(=O)n1 [Decitabine] (partner 2 µM) = 0.713

// recorded relative viability for CC(C)Oc1cc(Nc2nc(N[C@@H](C)c3ccc(F)cn3)ncc2Cl)n[nH]1 [AZ23] + NC(=O)Nc1cc(-c2cccc(F)c2)sc1C(=O)N[C@H]1CCCNC1 [AZD7762] (partner 0.2 µM) : 0.375

Kindly note the recorded relative viability for CC(C)Oc1cc(Nc2nc(N[C@@H](C)c3ccc(F)cn3)ncc2Cl)n[nH]1 [AZ23] + CCNC(=O)c1noc(-c2cc(C(C)C)c(O)cc2O)c1-c1ccc(CN2CCOCC2)cc1 [Luminespib] (partner 0.01 µM) , which is 0.658

Memo: CC(C)Oc1cc(Nc2nc(N[C@@H](C)c3ccc(F)cn3)ncc2Cl)n[nH]1 [AZ23] + CC(=O)c1c(C)c2cnc(Nc3ccc(N4CCNCC4)cn3)nc2n(C2CCCC2)c1=O [Palbociclib] (partner 0.5 µM) , reported relative viability: 0.694

Summary for this compound, CC(C)Oc1cc(Nc2nc(N[C@@H](C)c3ccc(F)cn3)ncc2Cl)n[nH]1 [AZ23] + COc1cc2c(Oc3ccc(NC(=O)C4(C(=O)Nc5ccc(F)cc5)CC4)cc3F)ccnc2cc1OCCCN1CCOCC1 [Foretinib] (partner 0.25 µM) : relative viability is 1.02

----------
# Test system: SK-MES-1
# Procedure text: relative viability (nuclei count vs DMSO), 5 days (fraction); higher = more cells survive
# Assay conditions: first compound 0.04 µM
Quantity kind: relative viability
Write the value as a bare number.

Entry COc1cc(N2CCC(C(N)=O)CC2)ccc1Nc1nc(N)c(Cl)c(Nc2ccccc2S(=O)(=O)C(C)C)n1 [HG-5-88-01] + C[C@]1(O)C[C@@H](c2nc(-c3ccc4ccc(-c5ccccc5)nc4c3)c3c(N)nccn32)C1 [Linsitinib] (partner 1 µM) — recorded relative viability = 1.02

Reported relative viability for C[C@@H]1CN(CC(=O)Nc2ccc3c(c2)Cc2cccc(-c4cc(=O)cc(N5CCOCC5)o4)c2S3)C[C@H](C)O1 + O=C(c1cc(Cc2n[nH]c(=O)c3ccccc23)ccc1F)N1CCN(C(=O)C2CC2)CC1 [Olaparib] (partner 8 µM) was 0.78

Note to self: relative viability recorded for Clc1ccc(Nc2nnc(Cc3ccncc3)c3ccccc23)cc1 [Vatalanib] + O=C(CCCCCCC(=O)Nc1ccccc1)NO [Vorinostat] (partner 1 µM) was 1.13
